TESTED TARGET: human MGL from HeLa cells (Homo sapiens, UniProt Q99685)
Construct: combining endogenously expressed MGL from HeLa cells with test compounds; endogenous in cells; host or cells: HeLa cells / cell homogenates
Sequence (Q99685 1-303): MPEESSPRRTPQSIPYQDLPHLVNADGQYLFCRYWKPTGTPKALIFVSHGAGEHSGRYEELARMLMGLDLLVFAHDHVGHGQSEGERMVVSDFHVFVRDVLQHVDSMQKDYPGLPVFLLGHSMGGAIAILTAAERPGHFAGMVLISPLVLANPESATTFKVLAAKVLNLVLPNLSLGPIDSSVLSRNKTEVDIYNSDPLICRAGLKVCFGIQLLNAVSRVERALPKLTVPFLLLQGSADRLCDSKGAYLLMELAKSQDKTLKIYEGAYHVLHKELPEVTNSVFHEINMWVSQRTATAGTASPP
TEST METHOD NOTES: In vitro MGL activity assay: [glycerol-1,3-3H]-oleyl glycerol cleavage by MGL from HeLa cells
Format: biochemical
TEST CONTEXT: 300 nM [Glycerol-1,3-3H]-oleyl glycerol, one hour incubation
MEASURE: IC50 (nM)

Worked cases, answers included:
COc1cc(C(=O)N2CCc3c(nn(C)c3-c3cc(F)c(F)c(F)c3)[C@@H]2C)cc(-n2cncn2)c1 [Example 278] : 3.24
Cn1nc2c(c1-c1ccccc1)CCN(C(=O)c1ccc3[nH]ccc3c1)C2 [Example 43] : 64.7
C[C@H]1c2nn(C)c(-c3cc(F)c(F)c(F)c3)c2CCN1C(=O)c1cnc2c(cnn2C)c1 [Example 231] : 124
C[C@H]1c2nn(C)c(-c3ccccc3)c2CCN1C(=O)c1ccc2ncccc2c1 (single isomer, unassigned) [Example 112] : 6.96
Cn1nc2c(c1-c1ccccc1)CCN(C(=O)c1ccc3[nH]cnc3c1)C2 [Example 71] : 1010

1 = Cn1nc2c(c1-c1ccccc1)CCN(C(=O)c1ccn3cncc3c1)C2 [Example 78]
2 = CC1c2nn(C)c(-c3cc(F)cc(F)c3)c2CCN1C(=O)c1ccc2ccncc2c1 (centres unmarked) [Example 161]
Exercise: // which entry has the larger IC50 value, 1 or 2 ? // respond with label for picked entry
Key: 1
(1: 2000 nM, 2: 260 nM)

---

TESTED TARGET: human MGL from HeLa cells (Homo sapiens)
Construct: combining endogenously expressed MGL from HeLa cells with test compounds; endogenous in cells; host or cells: HeLa cells / cell homogenates
TEST METHOD NOTES: In vitro MGL activity assay: [glycerol-1,3-3H]-oleyl glycerol cleavage by MGL from HeLa cells
Type: biochemical
TEST CONTEXT: 300 nM [Glycerol-1,3-3H]-oleyl glycerol, one hour incubation
pIC50: −log10 of the molar value.
MEASURE: pIC50

Cc1nc(C(=O)N2CCc3c(nn(C)c3-c3cc(F)c(F)c(F)c3)[C@@H]2C)nn1-c1ccc(F)cc1 : 7.46
Cn1nc2c(c1-c1ccccc1)CCN(C(=O)c1sc3ccccc3c1Cl)C2 : 7.19
C[C@H]1c2nn(C)c(-c3cc(F)c(F)c(F)c3)c2CCN1C(=O)c1cnn2ccncc12 : 7.39
Cn1nc2c(c1-c1ccccc1)CCN(C(=O)c1cccc3cnccc13)C2 : 6.97
C[C@H]1c2nn(C)c(-c3cc(F)c(F)c(F)c3)c2CCN1C(=O)c1ccc2c(c1)N(C)C(=O)CO2 : 7.75

P = CCC1c2nn(C)c(-c3cccc(F)c3)c2CCN1C(=O)c1ccc2ncccc2c1 (centres unmarked)
Q = CC1c2nn(C)c(-c3cc(F)cc(F)c3)c2CCN1C(=O)c1ccc2ncccc2c1 (centres unmarked)
Exercise: Between P and Q , which one has the lower reported pIC50 value? // respond with label for picked entry
Key: P
(P: 7.50, Q: 8.13)

src = patent US11820766B2
